- Target Of Assay: Fuc(a1-2)Gal(b1-4)GlcNAc
- Protocol Description: glycan array binding signal (z-score within array); higher = stronger binding
- Recorded Conditions: glycan notation: IUPAC condensed, linker removed
The full list was thinned out, with the strongest signals kept by preference.
Label rule, in plain words: glycan array binding signal (z-score) of -0.02 and up is Y, under -0.02 is N.

INSERT INTO measurements (binder, assigned_class) VALUES
  ('SLLPI (Mus musculus), Q9D9X8 (protein) MGICMSMYTQVLVPVDADGDHHILWSRFYERWGSCFNPCAGLVNCLPPHSSALYLCHRMEARSRAPRRQLCPPGITWLALAYLLSCLLASSKAKVFSRCELAKEMHDFGLDGYRGYNLADWVCLAYYTSGFNTNAVDHEADGSTNNGIFQISSRRWCRTLASNGPNLCRIYCTDLLNNDLKDSIVCAMKIVQEPLGLGYWEAWRHHCQGRDLSDWVDGCDF', 'Y'),
  ('UEA-I (Ulex europaeus), P22972 (protein) SDDLSFKFKNFSQNGKDLSFQGDASVIETGVLQLNKVGNNLPDETGGIARYIAPIHIWNCNTGEVASFITSFSFFMETSANPKAATDGLTFFLAPPDSPLRRAGGYFGLFEDTKDNDSSYQTVAVEFDTIGSPVNFDDPGFPHIGIDVNRVKSINAERWNKRYGLNNVANVEIIYEASSKTLTASLTYPSDQTSISVTSIVDLKEILPEWVSVGFSGGTYIGRQATHEVLNWYFTSNLIN', 'Y'),
  ('Erv46-EDTA (Saccharomyces cerevisiae), P39727 (protein) MKFLVNVALVFMVVYISYIYAAAPEHHHHHHDYDIPTTENLYFQGAMDSVVTRPQLVVDRDRHAKLELNMDVTFPSMPCDLVNLDIMDDSGEMQLDILDAGFTMSRLNSEGRPVGDATELHVGGNGDGTAPVNNDPNYCGPCYGAKDQSQNENLAQEEKVCCQDCDAVRSAYLEAGWAFFDGKNIEQCEREGYVSKINEHLNEGCRIKGSAQINRIQGNLHFAPGKPYQNAYGHFHDTSLYDKTSNLNFNHIINHLSFGKPIQSHSKLLGNDKRHGGAVVATSPLDGRQVFPDRNTHFHQFSYFAKIVPTRYEYLDNVVIETAQFSATFHSRPLAGGRDKDHPNTLHVRGGIPGMFVFFEMSPLKVINKEQ', 'N'),
  ('CrataBL (Crataeva tapia), C0HJA4 (protein) AILTGVPYYILPSTSRAGFSPDNLRKNTSQLSCPLDLITQLRFPRRIGVPVIFTPQNSSLKVVPLSHNLNIHTCSDLWFCPESKIWTVKSSLTHGGSVVTTGGTFRSLGSWFRIERHGDSYKLVHCPRGSTPCRDVGIETVGGGGRRYLAPRDRPLAVRFTRASG', 'N'),
  ('LTL (Lotus tetragonolobus), P19664 (protein) VSFNYTEFKDDGSLILQGDAKIWTDGRLAMPTDPLVNNPKTTRSAGRALYATPVPIWDSATGNVASFVTSFNFLFVIRELKYTPTDGLVFFLAPVGTEIPSGSTGGFLGIFDGSNGFNQFVAVEFDSYHNIWDPKSLRSSHVGIDVNSIMSLKAVNWNRVSGSLEKATIIYDSQTNILSVVMTSQNGQITTIYGTIDLKTVLPEKVSVGFSATTGNPEREKHDIYSWSFTSTLKEPEEQA', 'Y');

Attribution: the supplement of paper PMC8728848
